Molecular target: Mast/stem cell growth factor receptor Kit (Homo sapiens, UniProt P10721, T670I)
Sequence (P10721 26-976 T670I limits assumed): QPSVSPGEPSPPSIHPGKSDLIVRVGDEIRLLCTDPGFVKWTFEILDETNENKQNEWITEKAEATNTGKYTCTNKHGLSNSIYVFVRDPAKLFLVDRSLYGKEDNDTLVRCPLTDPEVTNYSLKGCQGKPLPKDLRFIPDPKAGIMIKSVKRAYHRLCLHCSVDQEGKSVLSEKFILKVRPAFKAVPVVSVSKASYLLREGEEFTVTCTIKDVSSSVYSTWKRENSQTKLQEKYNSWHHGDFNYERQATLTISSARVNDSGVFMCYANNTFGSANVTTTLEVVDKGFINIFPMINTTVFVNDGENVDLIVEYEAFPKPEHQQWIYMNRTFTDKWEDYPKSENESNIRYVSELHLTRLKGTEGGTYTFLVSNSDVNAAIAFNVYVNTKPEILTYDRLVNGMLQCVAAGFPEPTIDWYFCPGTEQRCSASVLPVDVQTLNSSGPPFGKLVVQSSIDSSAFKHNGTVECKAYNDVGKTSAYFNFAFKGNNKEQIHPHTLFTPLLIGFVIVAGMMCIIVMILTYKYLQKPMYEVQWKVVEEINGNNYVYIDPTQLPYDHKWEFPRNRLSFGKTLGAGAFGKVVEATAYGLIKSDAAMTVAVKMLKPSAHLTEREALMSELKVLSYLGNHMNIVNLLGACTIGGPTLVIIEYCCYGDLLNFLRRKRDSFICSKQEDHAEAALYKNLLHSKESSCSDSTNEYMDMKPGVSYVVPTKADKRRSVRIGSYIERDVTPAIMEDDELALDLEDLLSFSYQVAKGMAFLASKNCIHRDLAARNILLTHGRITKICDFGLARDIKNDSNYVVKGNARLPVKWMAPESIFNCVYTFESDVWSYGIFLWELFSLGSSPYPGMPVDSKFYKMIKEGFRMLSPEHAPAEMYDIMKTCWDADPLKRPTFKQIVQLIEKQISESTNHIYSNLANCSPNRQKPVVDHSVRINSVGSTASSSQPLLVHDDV
Assay: Inhibition of cKIT T670I mutant autophosphorylation at Y703 in human GIST-5R cells at 0.1 to 3 uM after 1 hr by Western blot analysis
Format: cell-based
Reported Endpoint: EC50

Query EC50 for CCC(=O)NCC1CCN(c2ccc(NC(=O)Nc3cccc(Oc4ccnc5cc(OC)c(OC)cc45)c3)cc2C(F)(F)F)CC1
< 0.1 µM

----------
In this section, each of the molecules is paired with its reported GI50 at 72 h.
Test: Cytotoxicity mouse BA/F3 cells assessed as cell growth inhibition after 72 hrs by cell titer-glo assay
Type: cell-based, BaF3
Give your result in µM as a bare value.

The examples below pair each entry with its known result.
Query GI50 at 72 h for COc1cc2nccc(Oc3cccc(NC(=O)Nc4ccc(N5CCC(NC(=O)CCN6CCOCC6)CC5)c(C(F)(F)F)c4)c3)c2cc1OC
3.6

Query GI50 at 72 h for COc1cc2nccc(Oc3cccc(NC(=O)Nc4ccc(N5CCC(NC(=O)C6CCN(C(C)=O)CC6)CC5)c(C(F)(F)F)c4)c3)c2cc1OC
3.4

Query GI50 at 72 h for COc1cc2nccc(Oc3cccc(NC(=O)Nc4ccc(N5CCC(NC(=O)C6CCN(C)CC6)CC5)c(C(F)(F)F)c4)c3)c2cc1OC
1.7

Query GI50 at 72 h for CCS(=O)(=O)NC1CCN(c2ccc(NC(=O)Nc3cccc(Oc4ccnc5cc(OC)c(OC)cc45)c3)cc2C(F)(F)F)CC1
6.2

Query GI50 at 72 h for COc1cc2nccc(Oc3cccc(NC(=O)Nc4ccc(N5CCC(NC(C)=O)CC5)c(C(F)(F)F)c4)c3)c2cc1OC
7.1

Next:
Query GI50 at 72 h for COc1cc2nccc(Oc3cccc(NC(=O)Nc4ccc(N5CCC(NC(=O)C6CCNC(C)C6)CC5)c(C(F)(F)F)c4)c3)c2cc1OC (stereo not drawn)
4

Query GI50 at 72 h for COc1cc2nccc(Oc3cccc(NC(=O)Nc4ccc(N5CCC(NC(=O)CCN6CCCCC6)CC5)c(C(F)(F)F)c4)c3)c2cc1OC
7.6

Query GI50 at 72 h for COc1cc2nccc(Oc3cccc(NC(=O)Nc4ccc(N5CCC(CNC(=O)CCC6CCCCN6C)CC5)c(C(F)(F)F)c4)c3)c2cc1OC (stereo not drawn)
4.4

Query GI50 at 72 h for CCCS(=O)(=O)NC1CCN(c2ccc(NC(=O)Nc3cccc(Oc4ccnc5cc(OC)c(OC)cc45)c3)cc2C(F)(F)F)CC1
4.23

Origin of the recorded values: ChEMBL document CHEMBL4428071
